Recorded values, source ChEMBL document CHEMBL1155223.

- Target Under Test: Adenosine receptor A2b (Homo sapiens) (UniProt P29275)
- Sequence (whole entry): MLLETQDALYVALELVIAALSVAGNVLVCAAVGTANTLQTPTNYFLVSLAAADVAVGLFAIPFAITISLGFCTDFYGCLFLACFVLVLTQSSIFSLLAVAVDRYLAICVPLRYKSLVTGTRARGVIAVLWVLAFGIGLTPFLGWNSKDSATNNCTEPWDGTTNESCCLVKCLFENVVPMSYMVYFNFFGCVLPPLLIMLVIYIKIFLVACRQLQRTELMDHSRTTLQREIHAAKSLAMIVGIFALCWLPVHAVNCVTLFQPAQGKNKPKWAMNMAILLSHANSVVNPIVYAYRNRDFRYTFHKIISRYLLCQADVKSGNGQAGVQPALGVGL
- Assay Method Text: Antagonist activity at human adenosine A2B receptor expressed in CHO cells assessed as inhibition of NECA-stimulated [3H]cAMP production at 1 uM by scintillation counting
- Format: functional, cell-based
Measure: inhibition (%)
Supply the numeric figure in %, leaving out any unit text.

These recorded examples may help you get a feel for the data.
Compound Smiles	inhibition (%)
COc1ccc(-n2cc3nc[nH]c(=O)c3n2)cc1	3
O=c1[nH]c(=O)c2nn(-c3ccccc3)cc2[nH]1	2
O=c1[nH]c(Cc2ccccc2)nc2cn(-c3ccccc3)nc12	4
O=c1[nH]cnc2cn(-c3ccccc3)nc12	3
Cc1nc2cn(-c3ccccc3)nc2c(=O)[nH]1	2
COc1ccc(-n2cc3nc(C)[nH]c(=O)c3n2)cc1	2

Entry under review: Cc1cccc(-n2cc3nc(C)[nH]c(=O)c3n2)c1 . Reported inhibition?
2

Any idea what inhibition was measured for Cc1ccc(-n2cc3nc(C)[nH]c(=O)c3n2)cc1 ?
4

Form field: reported inhibition of COc1ccc(-n2cc3nc(Cc4ccccc4)[nH]c(=O)c3n2)cc1
4

Bench note: what inhibition did CCc1nc2cn(-c3ccccc3)nc2c(=O)[nH]1 show?
1
